All figures here come from paper PMC5540273.

Hi there, I'd appreciate the recorded %Inh for every entry that follows.
test system: SGK; settings: concentration: 1 μM, replicates: in singlicate; n = 1;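 note: KINOMEscan kinase panel screen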

Query Cc1ccccc1CC(=O)N1CCc2cc(-c3cn(C)c4ncnc(N)c34)ccc21 yields %Inh of 0%

Entry Cn1cc(-c2ccc3c(c2)CCN3C(=O)Cc2cc(F)cc(F)c2F)c2c(N)ncnc21 , %Inh reported as 0%

%Inh reading for CC(C)c1nc(-c2cccc(NS(=O)(=O)c3c(F)cccc3F)c2)c(-c2ccnc(Nc3ccc(N4CCOCC4)nc3)n2)s1.Cl : 34%

// %Inh lookup, molecule = COc1ccc(C)c(Nc2ccnc(Nc3ccc(-c4cnc[nH]4)cc3)n2)c1.Cl , result: 0%

// sample CSc1ccc(NC2=C(c3ccc(Cl)cc3)C(=O)NC2=O)cc1 , its %Inh was 0%

The molecule Fc1cc(Cl)ccc1Nc1ccnc2cc(-c3ccc(CN4CCSCC4)o3)ccc12 showed %Inh equal to 0%

The value of %Inh measured for the molecule CN(c1ccc(F)c(NC(=O)c2cccc(OC(C)(C)C#N)c2Cl)c1)c1ccc2nc(NC(=O)C3CC3)sc2n1 turned out to be 0%

molecule COc1cc(Nc2ccnc3cc(-c4ccncc4)ccc23)cc(OC)c1OC.Cl , %Inh observed: 19%

%Inh recorded for this molecule, Cc1cc(-c2c(-c3ccc(F)cc3)ncn2CCCN2CCOCC2)nc(N)n1 , is 0%

The reported %Inh of the molecule Cn1cc(-c2ccc3c(c2)CCN3C(=O)Cc2cc(F)cc(C(F)(F)F)c2)c2c(N)ncnc21 was 1%

Given item CCn1c(-c2nonc2N)nc2c(-c3ccccc3)ncc(OCCCN)c21.O=C(O)C(F)(F)F.O=C(O)C(F)(F)F , the value recorded as its %Inh is 1%

// %Inh value for CN1CCN(Cc2ccc(NC(=O)Nc3ccc(N(C)c4ccnc(Nc5ccc(CS(C)(=O)=O)cc5)n4)cc3)cc2)CC1.Cl : 53%

Notebook: CN(C)CCOc1ccc(-c2cc(-c3ccc(Cl)c(O)c3)c(-c3ccncc3)[nH]2)cc1.Cl.Cl , %Inh read as 24%

The value of %Inh measured for the molecule Cn1cc(-c2cnc(N)c3c(-c4ccc5c(c4)CCN5C(=O)Cc4ccccc4)csc23)cn1 turned out to be 21%

# %Inh of Cc1ccc(NC(=O)c2cccc(N3CCCCC3)c2)cc1-c1ccc(C(=O)NCC2CC2)cc1 = 0%

Documented %Inh of Cc1ccc(-c2ccc3occ(-c4ccc(S(C)=O)cc4)c3c2)nn1 (centres unmarked) : 0%

Reported %Inh ( N#Cc1cnc2cc(-c3cnc(CNCCN4CCOCC4)s3)ccc2c1Nc1ccc(Oc2ccccc2)cc1 ) = 1%

// CC(C)c1nc(-c2ccc(F)c(NS(=O)(=O)c3c(F)cccc3F)c2)c(-c2ccnc(Nc3ccc(N4CCOCC4)nc3)n2)s1 : %Inh value = 25%

GET /value?item= COc1cccc(NC(=O)NCCNc2ccnc(Nc3ccc(F)cc3)n2)c1 &field=%Inh returns 3%

For this molecule ( Cc1ccc(C)c(NC(=O)Nc2ccc(C)c(-c3ccc(C(=O)Nc4ccncc4)cc3)c2)c1 ), measured %Inh is 0%
